- system under test: T1, rat alpha CGRP (SEQ ID NO: 82) (rat)
- T1 construct: also called rat αCGRP; rat α-CGRP
- T1 peptide: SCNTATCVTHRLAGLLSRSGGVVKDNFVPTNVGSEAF
- assay remarks: SPR, 37 C, mutein captured, CGRP analyte
measured property: log10(Kd) (log10 of the value in nM)

1) lipocalin mutein SEQ ID NO: 10 (designed binder, biotinylated by NHS chemistry for capture in SPR) QDSTSDLIPAPPLSKVPLQQNFQDNQFHGKWYVVGWAGNTLLREDKNPTKMQATIYELKEDKSYNATWVYLSEKKCNYHIETSVPGSQPGEFTLGTTKSYPGETPILVRVVSTNYNQHAMVFFKGVSQNREIFEITLYGRTKELTSELKENFIRFSKSLGLPENHIVFPVPIDQCIDGSAWSHPQFEK    -0.26
2) lipocalin mutein SEQ ID NO: 28 (designed binder, biotinylated by NHS chemistry for capture in SPR) QDSTSDLIPAPPLSKVPLQQNFQDNQFHGKWYVVGWAGNTLLREDKDPIKMQAIIYELKEDRSYNVTWVYFSEKKCNYHIETFVPGSQPGEFTLGTIKSYPGETPILVRVMSTNYNQHAMVFFKGVNQNREIFEIILYGRTKELTNELKENFIRFSKSLGLPENHIVFPVPIDQCIDGSAWSHPQFEK    -1.31
3) lipocalin mutein SEQ ID NO: 23 (designed binder, biotinylated by NHS chemistry for capture in SPR) QDSTSDLIPAPPLSKVPLQQNFQDNQFHGKWYVVGWAGNTLLREDKDPIKMQAKIYELKEDRSYNVTWVYFADKKCNYHIETFVPGSQPGEFTLGLIKSYPGETPILVRVVSTNYNQHAMVFFKGVNQNREIFEIILYGRTKELTNELKENFIRFSKSLGLPENHIVFPVPIDQCIDGSAWSHPQFEK    -2.05
4) lipocalin mutein SEQ ID NO: 25 (designed binder, biotinylated by NHS chemistry for capture in SPR) QDSTSDLIPAPPLSKVPLQQNFQDNQFHGKWYVVGWAGNTLLREDKDPIKMQAKIYELKEDRSYNVTWVYFADKKCNYHIETFVPGSQPGEFTLGTIKSYPGETPILVRVVSTNYNQHAMVFFKGVNQNREIFEIILYGRTKELTNELKENFIRFSKSLGLPENHIVFPVPIDQCIDGSAWSHPQFEK    -1.80
5) lipocalin mutein SEQ ID NO: 24 (designed binder, biotinylated by NHS chemistry for capture in SPR) QDSTSDLIPAPPLSKVPLQQNFQDNQFHGKWYVVGWAGNTLLREDKDPIKMQAKIYELKEDRSYNVTWVYFAEKKCNYHIETFVPGSQPGEFTLGTIKSYPGETPILVRVVSTNYNQHAMVFFKGVNQNREIFEIILYGRTKELTNELKENFIRFSKSLGLPENHIVFPVPIDQCIDGSAWSHPQFEK    -1.82
